Measured values drawn from ChEMBL document CHEMBL1156328 for this set.

# tested-system: 5-hydroxytryptamine receptor 2B (Homo sapiens, UniProt P41595)
# Sequence (P41595 whole entry): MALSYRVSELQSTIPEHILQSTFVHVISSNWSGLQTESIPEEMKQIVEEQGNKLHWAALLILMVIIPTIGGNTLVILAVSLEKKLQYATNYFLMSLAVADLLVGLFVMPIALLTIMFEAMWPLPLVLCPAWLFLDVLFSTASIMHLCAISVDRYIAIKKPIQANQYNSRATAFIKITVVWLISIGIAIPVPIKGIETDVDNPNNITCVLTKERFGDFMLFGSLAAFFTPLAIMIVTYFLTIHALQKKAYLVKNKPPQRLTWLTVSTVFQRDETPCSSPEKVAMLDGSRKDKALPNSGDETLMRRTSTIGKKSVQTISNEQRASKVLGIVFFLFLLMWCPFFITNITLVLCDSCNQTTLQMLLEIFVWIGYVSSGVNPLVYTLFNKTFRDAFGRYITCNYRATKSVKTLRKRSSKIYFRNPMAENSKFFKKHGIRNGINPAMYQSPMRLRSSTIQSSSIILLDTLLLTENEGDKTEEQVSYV
# test-protocol: Antagonist activity at human 5HT2B receptor in HEK293 cells assessed as inhibition of alpha-ME-5-HT-induced intracellular calcium mobilization pretreated for 15 secs before alphaME-5-HT addition by Fura-2AM dye based spectrofluorimetry
readout-type: IC50 (nM)

[P] CSc1nn2c3c(c(C)nc2c1S(=O)(=O)c1ccccc1)CCCC3
[Q] CSc1nn2c3c(cnc2c1S(=O)(=O)c1ccccc1)CCCC3
Req: Of the two listed items, which has the higher IC50? First: P Second: Q Mark your selection by writing its label.
Resp: Q

* * *

# tested-system: 5-hydroxytryptamine receptor 6 (Homo sapiens, UniProt P50406)
# Sequence (P50406 whole entry): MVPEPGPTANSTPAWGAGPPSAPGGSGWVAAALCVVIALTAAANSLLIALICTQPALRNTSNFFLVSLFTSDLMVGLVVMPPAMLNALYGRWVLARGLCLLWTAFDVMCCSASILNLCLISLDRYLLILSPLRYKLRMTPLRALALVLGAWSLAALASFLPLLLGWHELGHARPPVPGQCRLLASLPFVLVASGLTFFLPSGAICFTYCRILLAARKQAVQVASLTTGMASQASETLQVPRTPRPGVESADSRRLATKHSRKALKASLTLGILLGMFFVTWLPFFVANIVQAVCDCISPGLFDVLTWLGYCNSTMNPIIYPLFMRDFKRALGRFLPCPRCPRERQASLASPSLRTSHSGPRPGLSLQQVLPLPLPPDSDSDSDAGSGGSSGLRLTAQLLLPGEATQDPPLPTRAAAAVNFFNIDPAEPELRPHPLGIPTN
# test-protocol: Antagonist activity at human 5HT6 receptor in HEK293 cells assessed as inhibition of serotonin-induced cAMP accumulation pretreated for 15 mins before serotonin challenge measured after 30 mins
pIC50: −log10 of the molar value.
readout-type: pIC50

Study these solved cases before continuing.
INSERT INTO assay_data (query_smiles, reported_measurement) VALUES
  ('CSc1nn2c3c(cnc2c1S(=O)(=O)c1ccccc1)CCCC3', 8.12),
  ('CSc1nn2cc3c(nc2c1S(=O)(=O)c1ccccc1)CCCC3', 7.01);

[a] CSc1nn2c3c(cnc2c1S(=O)(=O)c1ccccc1)CCC3
[b] CSc1nn2c3c(c(C)nc2c1S(=O)(=O)c1ccccc1)CCCC3
Req: Lowest pIC50? choose a or b Mark your selection by writing its label.
Resp: b
(b: 7.77, a: 8.22)
